studyTarget: intracellular phosphorylation of EGFR in NCI-H1975 cell line that harbors the EGFR L858R T790M mutations (Homo sapiens, UniProt P00533, L858R/T790M)
Construct: NCI-H1975 cell line that harbors the EGFR L858R T790M mutations (ATCC, CRL-5908); host or cells: NCI-H1975
Sequence (P00533 25-1210 T790M/L858R): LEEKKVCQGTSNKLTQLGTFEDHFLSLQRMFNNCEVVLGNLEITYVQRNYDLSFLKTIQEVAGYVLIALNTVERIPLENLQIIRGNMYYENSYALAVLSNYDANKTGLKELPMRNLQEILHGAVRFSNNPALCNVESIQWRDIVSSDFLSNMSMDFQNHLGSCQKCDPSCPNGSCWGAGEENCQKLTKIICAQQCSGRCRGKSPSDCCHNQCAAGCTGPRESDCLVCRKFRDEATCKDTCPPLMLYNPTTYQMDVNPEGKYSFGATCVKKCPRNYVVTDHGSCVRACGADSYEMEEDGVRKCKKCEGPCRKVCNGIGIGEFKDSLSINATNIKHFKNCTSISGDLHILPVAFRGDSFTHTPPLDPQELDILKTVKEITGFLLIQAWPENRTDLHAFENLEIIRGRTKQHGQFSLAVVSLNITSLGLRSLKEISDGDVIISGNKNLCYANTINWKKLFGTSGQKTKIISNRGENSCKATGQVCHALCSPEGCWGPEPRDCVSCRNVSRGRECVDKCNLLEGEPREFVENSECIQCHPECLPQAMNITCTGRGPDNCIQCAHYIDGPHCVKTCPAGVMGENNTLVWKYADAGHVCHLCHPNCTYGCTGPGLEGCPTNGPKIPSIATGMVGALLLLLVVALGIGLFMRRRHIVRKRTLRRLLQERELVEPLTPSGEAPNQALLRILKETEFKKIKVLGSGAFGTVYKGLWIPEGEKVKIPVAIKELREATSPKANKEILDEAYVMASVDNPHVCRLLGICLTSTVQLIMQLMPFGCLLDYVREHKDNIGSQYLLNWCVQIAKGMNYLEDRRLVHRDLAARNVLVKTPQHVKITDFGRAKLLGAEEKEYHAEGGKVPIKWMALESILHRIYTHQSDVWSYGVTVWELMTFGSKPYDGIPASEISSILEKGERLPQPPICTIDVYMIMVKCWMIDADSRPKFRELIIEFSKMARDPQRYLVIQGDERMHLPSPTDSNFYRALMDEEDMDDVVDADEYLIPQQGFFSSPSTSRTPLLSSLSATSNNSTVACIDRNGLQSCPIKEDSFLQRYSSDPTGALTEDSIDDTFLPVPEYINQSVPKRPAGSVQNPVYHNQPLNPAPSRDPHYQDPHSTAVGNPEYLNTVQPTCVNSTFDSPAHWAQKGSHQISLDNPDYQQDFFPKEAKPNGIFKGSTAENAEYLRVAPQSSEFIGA
experimentDescription: NCI-H1975 pEGFR AlphaLISA assay
Format: cell-based
reportedConditions: NCI-H1975 cells (EGFR L858R T790M), p-EGFR (Tyr1068), 4-5 hours incubation; read-out: Ext pEGFR H1975 GMean IC50 (nM) Protocol: @Pharmaron AlphaLISA (Num)
measuredMetric: IC50

{"columns": ["compound", "IC50"],
 "data": [
  ["C[C@@H]1CCN1c1ncc([C@@H]2CCOC2)c2cc(Nc3ccnc(N4CC[C@@H](O)[C@@H](F)C4)n3)ncc12 (single isomer, unassigned) [Example 162]", "30 to 50 nM"],
  ["C[C@H](c1cnc(N2CC[C@H]2C)c2cnc(Nc3ccnc(N4CC[C@@H](O)[C@@](C)(F)C4)n3)cc12)C1COC1 (single isomer, unassigned) [Example 176]", "20 to 30 nM"],
  ["CC(C)c1cnc(N2CC(S(C)(=O)=O)C2)c2cnc(Nc3ccnc(N4CC[C@@H](O)[C@@](C)(F)C4)n3)cc12 [Example 69]", "30 to 50 nM"],
  ["C[C@H](CO)c1cnc(N2CC[C@H]2C)c2cnc(Nc3ccnc(N4C[C@@H](F)[C@@H](O)C(C)(C)C4)n3)cc12 (single isomer, unassigned) [Example 187]", "> 50 nM"],
  ["COC[C@@H](C)c1cnc(N2CC[C@H]2C)c2cnc(Nc3ccnc(N4CC[C@@H](O)[C@@](C)(F)C4)n3)cc12 (single isomer, unassigned) [Example 215]", "30 to 50 nM"],
  ["CO[C@H]1CCN(c2nccc(Nc3cc4c(C(C)C)cnc(N5CCC56CN(C)C6)c4cn3)n2)C[C@@]1(C)F (single isomer, unassigned) [Example 43]", "> 50 nM"],
  ["C[C@H](C#N)c1ncc(N2CC[C@H]2C)c2cnc(Nc3ccnc(N4CC[C@@H](O)[C@@](C)(F)C4)n3)cc12 (single isomer, unassigned) [Example 157]", "> 50 nM"],
  ["CC(C)c1cnc(N2CC(F)(C(=O)N(C)C)C2)c2cnc(Nc3ccnc(N4CC[C@@H](O)[C@@](C)(F)C4)n3)cc12 [Example 92]", "30 to 50 nM"],
  ["CC(C)c1cnc(N2C[C@H](O)[C@H]2C)c2cnc(Nc3ccnc(N4C[C@H](F)[C@H](O)[C@](C)(F)C4)n3)cc12 (single isomer, unassigned) [Example 134]", "> 50 nM"],
  ["CC(C)c1ccc(C2CN(S(C)(=O)=O)C2)c2cnc(Nc3ccnc(N4CC[C@@H](O)[C@@](C)(F)C4)n3)cc12 [Example 3]", "20 to 30 nM"]
]}

Now look at this one.
In plain terms, C[C@@H]1[C@H](F)CN1c1ncc([C@@H](C)CO)c2cc(Nc3ccnc(N4CC[C@@H](O)[C@@](C)(F)C4)n3)ncc12 (single isomer, unassigned) [Example 209] has a documented IC50 of > 50 nM

* * *

studyTarget: EGFR (L858R T790M C797S) (Homo sapiens, UniProt P00533, C797S/L858R/T790M)
Construct: purchased SignalChem E10-122VG
Sequence (P00533 25-1210 T790M/C797S/L858R): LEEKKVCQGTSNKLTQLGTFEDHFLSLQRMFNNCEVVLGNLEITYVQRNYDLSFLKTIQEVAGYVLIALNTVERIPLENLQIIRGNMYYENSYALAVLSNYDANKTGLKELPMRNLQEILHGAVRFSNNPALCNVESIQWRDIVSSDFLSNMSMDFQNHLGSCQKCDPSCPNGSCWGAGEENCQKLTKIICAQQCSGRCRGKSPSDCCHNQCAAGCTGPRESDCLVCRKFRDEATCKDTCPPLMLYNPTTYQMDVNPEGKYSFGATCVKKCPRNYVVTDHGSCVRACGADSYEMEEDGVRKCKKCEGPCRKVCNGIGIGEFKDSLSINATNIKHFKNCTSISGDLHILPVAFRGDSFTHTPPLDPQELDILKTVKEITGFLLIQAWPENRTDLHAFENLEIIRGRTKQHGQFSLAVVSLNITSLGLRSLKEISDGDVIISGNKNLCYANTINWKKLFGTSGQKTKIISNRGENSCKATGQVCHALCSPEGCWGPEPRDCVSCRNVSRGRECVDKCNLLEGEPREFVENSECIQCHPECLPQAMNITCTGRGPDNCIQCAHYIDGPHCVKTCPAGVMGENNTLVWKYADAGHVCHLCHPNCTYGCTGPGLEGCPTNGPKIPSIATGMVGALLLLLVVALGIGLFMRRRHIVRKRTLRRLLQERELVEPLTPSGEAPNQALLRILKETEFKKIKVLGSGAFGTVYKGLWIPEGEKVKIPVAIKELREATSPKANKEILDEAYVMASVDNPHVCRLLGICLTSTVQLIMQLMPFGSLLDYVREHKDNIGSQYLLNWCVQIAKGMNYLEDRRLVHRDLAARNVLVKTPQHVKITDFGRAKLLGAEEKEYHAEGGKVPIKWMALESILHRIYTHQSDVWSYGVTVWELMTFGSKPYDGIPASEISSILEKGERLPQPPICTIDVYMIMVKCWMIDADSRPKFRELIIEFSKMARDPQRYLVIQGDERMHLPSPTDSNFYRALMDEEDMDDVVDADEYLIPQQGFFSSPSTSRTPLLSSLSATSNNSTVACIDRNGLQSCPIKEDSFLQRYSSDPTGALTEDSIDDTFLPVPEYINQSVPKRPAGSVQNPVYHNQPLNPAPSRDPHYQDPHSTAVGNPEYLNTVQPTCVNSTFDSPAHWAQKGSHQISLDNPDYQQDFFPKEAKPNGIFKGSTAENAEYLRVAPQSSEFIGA
experimentDescription: Biochemical EGFR inhibition assay (Caliper mobility shift), EGFR LRTMCS
reportedConditions: LRTMCS (PH) IC50 (nM) @ 1 mM ATP (Num), EGFR LRTMCS mutant
// reported IC50 per item

Below are worked cases with known answers.
{"columns": ["molecule", "IC50"],
 "data": [
  ["CO[C@H]1CN(c2ncc([C@@H](C)CO)c3cc(Nc4ccnc(N5CC[C@@H](O)[C@@](C)(F)C5)n4)ncc23)[C@@H]1C (single isomer, unassigned) [Example 211]", "30 to 100 nM"],
  ["CC(C)c1cnc(N2CCC(F)(F)C2)c2cnc(Nc3ccnc(N4CC[C@@H](O)[C@@](C)(F)C4)n3)cc12", "< 15 nM"],
  ["CNCCO[C@H]1CCN(c2nccc(Nc3cc4c(C(C)C)cnc(N5CC[C@H]5C)c4cn3)n2)C[C@H]1F", "< 15 nM"],
  ["CO[C@H]1CCN(c2nccc(Nc3cc4c(C(C)C)ccc(N5C[C@H](c6nnco6)[C@H]5C)c4cn3)n2)C[C@@H]1O (single isomer, unassigned)", "15 to 20 nM"],
  ["Cc1nnc(-c2cnc(C(C)C)c3cc(Nc4ccnc(N5CC[C@@H](O)[C@@](C)(F)C5)n4)ncc23)o1", "15 to 20 nM"]
]}

Now look at this one.
In plain terms, CO[C@H]1CN(c2ncc(C(C)C)c3cc(Nc4ccnc(N5CC[C@@H](O)[C@@](C)(F)C5)n4)ncc23)[C@@H]1C has a documented IC50 of < 15 nM

* * *

studyTarget: EGFR (L858R T790M C797S) (Homo sapiens, UniProt P00533, C797S/L858R/T790M)
Construct: purchased SignalChem E10-122VG
experimentDescription: Biochemical EGFR inhibition assay (Caliper mobility shift), EGFR LRTMCS
reportedConditions: LRTMCS (PH) IC50 (nM) @ 1 mM ATP (Num), EGFR LRTMCS mutant
// reported IC50 per item

{"columns": ["compound", "studyTarget", "IC50"],
 "data": [
  ["CC(C)c1cnc(N2CC[C@H]2C(F)F)c2cnc(Nc3ccnc(N4CC[C@@H](O)[C@@](C)(F)C4)n3)cc12 (single isomer, unassigned)", "EGFR (L858R T790M C797S) (Homo sapiens, UniProt P00533, C797S/L858R/T790M)", "< 15 nM"],
  ["C[C@H](CO)c1ccc(N2CC[C@H]2C)c2cnc(Nc3ccnc(N4CC[C@@H](O)[C@@](C)(F)C4)n3)cc12 (single isomer, unassigned)", "EGFR (L858R T790M C797S) (Homo sapiens, UniProt P00533, C797S/L858R/T790M)", "15 to 20 nM"],
  ["CO[C@@H]1CCN(c2nccc(Nc3cc4c(C(C)C)cnc(N5C[C@H](OCCO)[C@H]5C)c4cn3)n2)C[C@@H]1F", "EGFR (L858R T790M C797S) (Homo sapiens, UniProt P00533, C797S/L858R/T790M)", "< 15 nM"],
  ["CC(C)c1cnc(N2C[C@H](O)[C@H]2C)c2cnc(Nc3ccnc(N4CC[C@](C)(O)[C@](C)(F)C4)n3)cc12 (single isomer, unassigned)", "EGFR (L858R T790M C797S) (Homo sapiens, UniProt P00533, C797S/L858R/T790M)", "< 15 nM"]
]}

In plain terms, CC(C)c1cnc(N2C[C@H](O)[C@H]2C)c2cnc(Nc3ccnc(N4C[C@H](F)[C@H](O)[C@](C)(F)C4)n3)cc12 (single isomer, unassigned) has a documented IC50 of 30 to 100 nM

In plain terms, CC(C)c1cnc(N2CC3(CCS3(=O)=O)C2)c2cnc(Nc3ccnc(N4CC[C@@H](O)[C@@](C)(F)C4)n3)cc12 has a documented IC50 of < 15 nM

* * *

studyTarget: intracellular phosphorylation of EGFR in NCI-H1975 cell line that harbors the EGFR L858R T790M mutations (Homo sapiens, UniProt P00533, L858R/T790M)
Construct: NCI-H1975 cell line that harbors the EGFR L858R T790M mutations (ATCC, CRL-5908); host or cells: NCI-H1975
experimentDescription: NCI-H1975 pEGFR AlphaLISA assay
Assay type: cell-based
reportedConditions: NCI-H1975 cells (EGFR L858R T790M), p-EGFR (Tyr1068), 4-5 hours incubation; read-out: Ext pEGFR H1975 GMean IC50 (nM) Protocol: @Pharmaron AlphaLISA (Num)
// reported IC50 per item

Below are worked cases with known answers.
{"columns": ["molecule", "IC50"],
 "data": [
  ["Cc1nnc(C2CN(c3ccc(C(C)C)c4cc(Nc5ccnc(N6CC[C@@H](O)[C@@](C)(F)C6)n5)ncc34)C2)o1 [Example 104]", "< 10 nM"],
  ["CO[C@@H]1CCN(c2nccc(Nc3cc4c(C(C)C)ccc(N5CC6(CCS6(=O)=O)C5)c4cn3)n2)C[C@@H]1O (single isomer, unassigned) [Example 125]", "30 to 50 nM"]
]}

Now look at this one.
In plain terms, C[C@@H]1[C@@H](O)CN1c1ncc(C2CC2)c2cc(Nc3ccnc(N4CC[C@@H](O)[C@@](C)(F)C4)n3)ncc12 [Example 102] has a documented IC50 of > 50 nM

* * *

studyTarget: intracellular phosphorylation of EGFR in NCI-H1975 cell line that harbors the EGFR L858R T790M mutations (Homo sapiens, UniProt P00533, L858R/T790M)
Construct: NCI-H1975 cell line that harbors the EGFR L858R T790M mutations (ATCC, CRL-5908); host or cells: NCI-H1975
experimentDescription: NCI-H1975 pEGFR AlphaLISA assay
Format: cell-based
reportedConditions: NCI-H1975 cells (EGFR L858R T790M), p-EGFR (Tyr1068), 4-5 hours incubation; read-out: Ext pEGFR H1975 GMean IC50 (nM) Protocol: @Pharmaron AlphaLISA (Num)
// reported IC50 per item

Below are worked cases with known answers.
{"columns": ["compound", "reportedMeasurement"],
 "data": [
  ["CO[C@H]1CCN(c2nccc(Nc3cc4c(C(C)C)ccc(N5C[C@H](c6nnco6)[C@H]5C)c4cn3)n2)C[C@@H]1O (single isomer, unassigned) [Example 217]", "< 10 nM"],
  ["CC(C)c1cnc(N2C[C@H](n3ccnn3)[C@H]2C)c2cnc(Nc3ccnc(N4CC[C@@](C)(O)[C@@H](F)C4)n3)cc12 [Example 144]", "30 to 50 nM"]
]}

Now look at this one.
In plain terms, COC1CN(c2ncc(C(C)C)c3cc(Nc4ccnc(N5CC[C@@H](O)[C@@](C)(F)C5)n4)ncc23)C1 [Example 51] has a documented IC50 of 20 to 30 nM
